tested-target: T1, human GIP receptor (human, UniProt P48546 22-466)
T1 sequence (looked up): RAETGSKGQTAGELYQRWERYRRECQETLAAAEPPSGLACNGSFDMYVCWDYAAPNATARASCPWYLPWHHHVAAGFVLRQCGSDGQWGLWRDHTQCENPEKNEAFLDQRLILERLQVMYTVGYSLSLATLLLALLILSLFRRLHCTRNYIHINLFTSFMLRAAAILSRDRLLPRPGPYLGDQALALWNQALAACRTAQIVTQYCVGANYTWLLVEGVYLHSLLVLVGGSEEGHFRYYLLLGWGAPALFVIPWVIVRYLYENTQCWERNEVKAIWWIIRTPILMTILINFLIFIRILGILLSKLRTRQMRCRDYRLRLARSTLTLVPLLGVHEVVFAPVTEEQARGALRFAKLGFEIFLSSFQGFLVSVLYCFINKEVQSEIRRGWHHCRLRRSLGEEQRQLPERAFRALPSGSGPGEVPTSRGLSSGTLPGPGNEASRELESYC
assay: cell-based or functional assay
Bridge positions count the residues as written; N and C are the ends. Square brackets hold non-standard residues; d marks the D form. Ends that are not written are not given here. Aib = CC(C)(N)C(=O)O
measurement-kind: In vitro activity (%) compared with native peptide, vs GIP
Put your answer as a value accompanied by its unit after it.

Entry under review: Y[Aib]QGTFTSDCSKYLDERAAKDFVQWLLDHHPSSGQPPPS (bridge 16-20) [triple agonist of SEQ ID NO: 72] . Reported In vitro activity (%) compared with native peptide, vs GIP?
1.6%

Repeat with Y[Aib]QGTFTSDYSKALDEKAAKEFVNWLLDQHPSSGQPPPSC (bridge 16-20) [triple agonist of SEQ ID NO: 101]
40.1%

Repeat with Y[Aib]QGTFTSDYSKYLDEKAAKEFVQWLLDHHPSSGQPPPSC (bridge 16-20) [triple agonist of SEQ ID NO: 75]
18%

Attribution: patent US20230355720A1
